Assay: NCI Yeast Anticancer Drug Screen. Data for the sgs1 mgt1 strain (AID 161);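 further: 0% = growth of cultures given vehicle only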
Conditions: S. cerevisiae sgs1 mgt1 strain, at 50.0 µM, hits give high values
The panel holds about 79,000 compounds, 15% with a hit somewhere; the sample as a whole holds those more often.
Please respond with reported growth inhibition for every item in the list.
Numbers only, in %.

O=C(OCC1OC(C2N(c3ccccc3)CCN2c2ccccc2)C(OC(=O)c2ccccc2)C1OC(=O)c1ccccc1)c1ccccc1 (stereo not given)	-26.4

Dear reader, for each entry below, please note its growth inhibition.
1. Nc1ccccc1CN1C(=O)CCC1=O
2. O=C1OC(=C(Cl)Cl)C2C3c4ccccc4C(c4ccccc43)C12 (stereo not given)
3. CSC(=O)/C=C1\SS/C(=C\C(=O)SC)S1

Ans.
1. -12.4
2. -1.5
3. -13.1

Need growth inhibition for each of these molecules.
1. Clc1ccc(CSc2cnnc(SCc3ccc(Cl)cc3Cl)c2SCc2ccc(Cl)cc2Cl)c(Cl)c1
2. O=C(OCCN1CCOCC1)c1cc2ccccc2oc1=O
3. O=C(Cn1c(=O)oc2ccc(C(=O)c3ccc(F)cc3)cc21)c1ccccc1
4. O=C(NCC1(O)CCCCC1)c1ccccc1
5. C[n+]1ccc(CCC(=O)Nc2ccccc2)cc1
6. Cc1ccc2nc(-c3cccc([N+](=O)[O-])c3)c(N=O)n2c1
7. COC(=O)CCN(CCC(=O)OC)C1CC1

Ans.
1: 8.05; 2: 6.35; 3: -6.25; 4: -5.55; 5: -4.35; 6: 1.05; 7: -13.4

Look at each molecule and report its growth inhibition.
1. O=C1NS(=O)(=O)c2cc(Cl)ccc21
2. CCSc1ncnc2nc[nH]c12
3. CC1(C)COC(C)(Cc2ccccc2)OC1
4. CCOC(=O)Nc1cc2c(c(N)n1)N=C(c1ccc(Cl)cc1Cl)CN2
5. CCC(CC(N)=O)C(C#N)(C#N)C(N)=O (stereo not given)
6. Cc1ccc(S(=O)(=O)CN2CCC(=O)c3ccccc32)cc1
7. COc1ccc(I)cc1
8. Cc1nnc2c3[nH]c4ccccc4c3c(Cl)nn12

Ans.
1. -23.8
2. 4.4
3. -15.7
4. 25.6
5. -4.05
6. -6.4
7. 3.65
8. 3.55

// each listed molecule needs a value for growth inhibition
1. COC(=O)C(C/C=C(\C)c1ccccc1)C(C)=O (stereo not given)
2. CC(=O)/C(=C\c1ccc([N+](=O)[O-])cc1)C(=O)CCN(C)C
3. COc1c2c(cc3c(CCc4ccccc4)cc(=O)oc13)CCC(C)(C)O2
4. CCCCCCCC(=O)OCC(COC(=O)CCCCCCC)OC(=O)CCCCCCC
5. CC(=O)Nc1ccc(C(=O)NN2C(=O)C(Cl)C2c2ccc(Cl)cc2)cc1 (stereo not given)
6. O=C(COc1ccccc1)NCc1ccc(Cl)cc1

Ans.
-25
34.9
-6.5
1.6
-42.8
5.8
